target: Amylin Receptor (Homo sapiens, UniProt O60896+P30988); test: Amylin Receptor cAMP stimulation, assay version (I or II) not marked; conditions: values without footnote mark; assay I or II not stated
Reported endpoint: pEC50
pEC50 is defined as minus the log10 of a concentration measured in mol/L.

// known answers, use as guide
[
  {
    "Compound": "COc1cccc2c1CC[C@H]2Nc1nccc2cc(-c3c(C(N)=O)c(CC(C)C)nc(CCC4CCOCC4)c3-c3nnc(C)o3)sc12 [Compound 208]",
    "pEC50": 7.72
  },
  {
    "Compound": "CCc1nc(CC(C)C)c(C(N)=O)c(-c2cc3ccnc(N[C@@H]4CCc5ccc(F)cc54)c3s2)c1-c1nnc(C)o1 [Compound 209]",
    "pEC50": 7.01
  },
  {
    "Compound": "Cc1cnc(-c2c(CCC3CCOCC3)nc(CC(C)C)c(C(N)=O)c2-c2cc3ccnc(N[C@@H]4CCc5ncccc54)c3s2)o1 [Compound 207]",
    "pEC50": 7.19
  },
  {
    "Compound": "Cc1nnc(-c2c(COc3ccc(F)cc3)nc(CC(C)C)c(C(N)=O)c2-c2ccc(C(=O)N[C@@H]3CCc4ccccc43)s2)o1 [Compound 210]",
    "pEC50": 6.26
  }
]

Please find the next compound below.
Fill in the blank: the reported pEC50 of Cc1nnc(-c2c(CCc3ccc(F)cc3)nc(CC(C)C)c(C(N)=O)c2-c2cc3ccnc(NCc4cncc(F)c4)c3s2)o1 [Compound 206] is ____.
7.38

----------
biological target: human calcitonin receptor (CTR) and RAMP3 (AMY3) in COS-7 cells (Homo sapiens, UniProt O60896+P30988); experiment: Amylin Receptor cAMP Assay I; assay type: cell-based; settings: values marked *: Amylin Receptor cAMP Assay I; COS-7/AMY3 cells; read-out: Amylin Receptor cAMP Stimulation Activity: EC50
Sequence (P30988 25-474): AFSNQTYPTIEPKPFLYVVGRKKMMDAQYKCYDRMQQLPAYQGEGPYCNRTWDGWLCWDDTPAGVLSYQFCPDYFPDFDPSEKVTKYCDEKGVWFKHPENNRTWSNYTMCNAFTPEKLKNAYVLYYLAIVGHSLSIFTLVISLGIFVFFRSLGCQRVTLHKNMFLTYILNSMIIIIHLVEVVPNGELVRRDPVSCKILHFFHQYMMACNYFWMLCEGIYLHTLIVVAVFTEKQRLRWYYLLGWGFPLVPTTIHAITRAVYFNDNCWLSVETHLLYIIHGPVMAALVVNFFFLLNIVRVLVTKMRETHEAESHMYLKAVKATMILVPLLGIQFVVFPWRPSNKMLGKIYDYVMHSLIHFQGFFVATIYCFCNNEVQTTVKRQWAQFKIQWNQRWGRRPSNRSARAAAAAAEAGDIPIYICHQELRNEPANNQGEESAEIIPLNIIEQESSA
Sequence (O60896 24-148): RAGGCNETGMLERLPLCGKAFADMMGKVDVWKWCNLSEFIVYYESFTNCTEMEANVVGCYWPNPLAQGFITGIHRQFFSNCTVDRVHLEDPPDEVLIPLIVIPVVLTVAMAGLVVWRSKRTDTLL
Reported endpoint: pEC50
pEC50 is defined as minus the log10 of a concentration measured in mol/L.

[
  {
    "Molecular string": "Cc1nnc(-c2c(COc3ccc(F)cc3)nc(CC(C)C)c(C(N)=O)c2-c2cc3ccnc(NCc4ccc(F)c(F)c4)c3s2)o1",
    "Assay value": 7.40
  }
]

Fill in the blank: the reported pEC50 of Cc1nnc(-c2c(CC3(c4ccc(F)cc4)CC3)nc(CC(C)C)c(C(N)=O)c2-c2ccc(C(=O)NCc3ccc(F)c(F)c3)s2)o1 is ____.
5.94

Same again, this time with CC(C)Cc1nc(CCc2ccc(F)cc2)c(-c2cnn(C)c2)c(-c2ccc(C(=O)NCc3ccc(F)c(F)c3)s2)c1C(N)=O
7.04

----------
biological target: human calcitonin receptor (CTR) and RAMP3 (AMY3) in COS-7 cells (Homo sapiens, UniProt O60896+P30988); assay: Amylin Receptor cAMP Assay II; assay type: cell-based; conditions: value marked **: Amylin Receptor cAMP Assay II; COS-7/AMY3 cells; read-out: Amylin Receptor cAMP Stimulation Activity: EC50
Reported endpoint: EC50
Record the result as number plus unit.

Fill in the blank: the reported EC50 of Cc1nnc(-c2c(CCC3CCN(C(=O)OCc4ccccc4)CC3)nc(CC(C)C)c(C(N)=O)c2-c2ccc(C(=O)NCc3ccc(F)c(F)c3)s2)o1 [Compound 205] is ____.
66 nM
